- Read-out: Monokine induced gamma interferon (MIG), CXCL9 (gene 4283)
- METHOD SUMMARY: BSK_BE3C_MIG: BioMAP Diversity Plus: BE3C Assay for Monokine induced gamma interferon (MIG) Biomarker Activity (AID 2283035)
- CONDITIONS USED: primary human bronchial epithelial cells; actives raise or lower the signal
Activity calls are given as the source filed them. Rule for the calls: active = hit-call score of the fitted dose curve at least 0.9, where 1 is the maximum; inactive = score below 0.9.
Classes used: yes = active, no = inactive

MOLECULE	CATEGORY LABEL
[Cl-].[Cl-].[Hg+2]	yes
Nc1ccc(Cl)cc1N	no
CCCCCCCCn1sccc1=O	yes
Cc1ccc(N)cc1	no
Cc1ccc(N)c(N)c1	no
CCC[CH2][Sn]([Cl])([CH2]CCC)[CH2]CCC	yes
O=C1CCCO1	no
c1ccc2c(c1)oc1ccccc12	no
O=[N+]([O-])C(Br)(CO)CO	no
Nc1ccc(N=Nc2ccccc2)cc1	no
CN(C)[C@@H]1C(=O)C(C(N)=O)=C(O)[C@@]2(O)C(=O)C3=C(O)c4c(O)cccc4[C@@](C)(O)[C@H]3C[C@@H]12	no
O=C(Nc1ccccc1)c1ccccc1I	no
Nc1cc(Cl)cc(C(=O)O)c1Cl	no
CNC(=O)Oc1cccc2c1OC(C)(C)C2	no
COC(=O)c1ccccc1N	no
CC(C)COC(=O)c1ccccc1C(=O)OCC(C)C	no
